# Test Summary: self-splicing fitness, log relative to wild type (ln ratio); higher = more splicing; Tetrahymena group I intron in knt gene, E. coli kanamycin selection, DiMSum; sequences stand for … in CUCUCU…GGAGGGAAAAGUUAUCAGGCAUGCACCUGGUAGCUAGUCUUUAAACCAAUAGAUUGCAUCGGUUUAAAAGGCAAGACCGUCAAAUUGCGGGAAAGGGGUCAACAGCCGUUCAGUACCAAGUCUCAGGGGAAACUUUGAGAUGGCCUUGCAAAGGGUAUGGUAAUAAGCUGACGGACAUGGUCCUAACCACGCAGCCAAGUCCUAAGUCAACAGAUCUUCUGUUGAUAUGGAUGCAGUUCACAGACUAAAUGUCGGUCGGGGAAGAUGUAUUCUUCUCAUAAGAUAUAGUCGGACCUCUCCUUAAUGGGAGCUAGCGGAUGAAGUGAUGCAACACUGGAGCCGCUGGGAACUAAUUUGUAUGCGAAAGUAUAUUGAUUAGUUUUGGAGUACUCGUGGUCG;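 further: selection with 25 µg/mL kanamycin versus none on LB agar overnight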
# Test Conditions: 30 °C
Quantity Kind: self-splicing fitness (ln)

Look over these answered cases.
{"Sequence Code": "GGGCAGCAAUAUUACGAUGA", "self-splicing fitness (ln)": -1.36}
{"Sequence Code": "CAGUAGCAAUAUUACGCAGG", "self-splicing fitness (ln)": -1.59}
{"Sequence Code": "CUGGAGCAAUAUUACGCUUC", "self-splicing fitness (ln)": -2.1}
{"Sequence Code": "GGUAAGCAAUAUUACGUUGU", "self-splicing fitness (ln)": -3.1}
{"Sequence Code": "UCCUAGCAAUAUUACGUCCG", "self-splicing fitness (ln)": -3.98}

Sample UAUAAGCAAUAUUACGAAUU — what was its self-splicing fitness (ln)?
-2.74

Now this one: UAGCAGCAAUAUUACGUCCC
-3.06

Now this one: GCUUAGCAAUAUUACGAUUA
-1.01

Now this one: UGACAGCAAUAUUACGAUCU
-0.412

Now this one: ACUUAGCAAUAUUACGAAAA
-2.79

Now this one: UGGUAGCAAUAUUACGGACU
-0.67

Now this one: CAGAAGCAAUAUUACGCACC
-3.18

Now this one: GCUUAGCAAUAUUACGACGU
-0.576

Now this one: GCAGAGCAAUAUUACGAUAU
-3.38

Now this one: CCCCAGCAAUAUUACGAGAC
-3.9
